tested on: Coxsackievirus A24; experiment: Antiviral activity against Coxsackievirus A24 in human MRC5 cells; assay type: functional
testReadout: Activity

The reported value for N#Cc1cc([N+](=O)[O-])ccc1Oc1ccccc1 in terms of Activity is >240 µM

The reported value for N#Cc1cc([N+](=O)[O-])ccc1Oc1ccc([N+](=O)[O-])cc1 in terms of Activity is >350 µM

The reported value for N#Cc1cc([N+](=O)[O-])ccc1Oc1cccc(Cl)c1Cl in terms of Activity is >309 µM

* * *

test system: Coxsackievirus B3; assay: Antiviral activity against Coxsackievirus B3 assessed as reduction of virus-induced cytopathogenicity after 3 days by MTS assay; assay type: functional, organism-based; details: Enterovirus B, 72 h
testReadout: IC50 (µM)
Answer format: numeric, µM implied, no suffix.

[[record]]
compound = "C[S+]([O-])c1ccc(Oc2ccc([N+](=O)[O-])cc2C#N)cc1 (stereo not given)"
testreadout = "IC50"
recordedmeasurement = 205

[[record]]
compound = "N#Cc1cc([N+](=O)[O-])ccc1Oc1ccc(Br)cc1Br"
testreadout = "IC50"
recordedmeasurement = 6.2


The reported value for Cc1cc(Cl)ccc1Oc1ccc([N+](=O)[O-])cc1C#N in terms of IC50 is 11

* * *

# IC50 values compiled below
system: Coxsackievirus B3; assay: Antiviral activity against Coxsackievirus B3 assessed as reduction of virus-induced cytopathogenicity after 3 days by MTS assay; assay type: functional, organism-based; conditions: Enterovirus B, 72 h

The examples below pair each entry with its known result.
[[record]]
structurestring = "CCc1cc(Oc2ccc([N+](=O)[O-])cc2C#N)ccc1Cl"
recordedmeasurement = "> 330 µM"

[[record]]
structurestring = "N#Cc1cc([N+](=O)[O-])ccc1Oc1ccc(Cl)cc1N"
recordedmeasurement = "> 53 µM"

[[record]]
structurestring = "Cc1ccc(Oc2ccc([N+](=O)[O-])cc2C#N)cc1"
recordedmeasurement = "6.2 µM"

[[record]]
structurestring = "COc1ccc(Oc2ccc([N+](=O)[O-])cc2C#N)cc1"
recordedmeasurement = "46 µM"

[[record]]
structurestring = "Cc1cc(Oc2ccc([N+](=O)[O-])cc2C#N)ccc1[N+](=O)[O-]"
recordedmeasurement = "11 µM"


Readout IC50 for N#Cc1cc([N+](=O)[O-])ccc1Oc1ccccc1Cl , test system Coxsackievirus B3, was 6.9 µM

Readout IC50 for COc1ccccc1Oc1ccc([N+](=O)[O-])cc1C#N , test system Coxsackievirus B3, was 54 µM

Readout IC50 for N#Cc1cc([N+](=O)[O-])ccc1Oc1cccc(I)c1 , test system Coxsackievirus B3, was 5.7 µM

Readout IC50 for N#Cc1cc([N+](=O)[O-])ccc1Oc1ccc(C(=O)O)cc1 , test system Coxsackievirus B3, was > 352 µM

Readout IC50 for N#Cc1cc([N+](=O)[O-])ccc1Oc1ccc(Br)c(Cl)c1 , test system Coxsackievirus B3, was 6.7 µM

Readout IC50 for Cc1cccc(Oc2ccc([N+](=O)[O-])cc2C#N)c1 , test system Coxsackievirus B3, was 6.4 µM

Readout IC50 for Cc1cc(C)cc(Oc2ccc([N+](=O)[O-])cc2C#N)c1 , test system Coxsackievirus B3, was > 324 µM

Readout IC50 for Cc1cc(Oc2ccc([N+](=O)[O-])cc2C#N)ccc1Cl , test system Coxsackievirus B3, was 2 µM

Data provenance: ChEMBL document CHEMBL1158184
